The compounds listed here are annotated with their pEC50.
Tested on: HCV replicon cells
Test: HCV replicon FRET / luciferase assay (96-well plates)
Format: cell-based
Settings: Hepatitis C virus, Table 1a; HCV replicon; read-out: EC50
pEC50: −log10 of the molar value.
Value kind: pEC50

- CNC(=O)c1c(-c2ccc(F)cc2)oc2ccc(-c3ccc(CCC(=O)O)cc3)cc12: < 5.00
- CNC(=O)c1c(-c2ccc(F)cc2)oc2ccc(-c3cccc(C(=O)N(CCOC)CCOC)c3)cc12: 5.00 to 6.00
- CCn1nccc1NC(=O)c1cccc(-c2ccc3oc(-c4ccc(F)cc4)c(C(=O)NC)c3c2)c1: 6.00 to 6.60
- CNC(=O)c1c(-c2ccc(F)cc2)oc2ccc(-c3cccc(C(=O)N[C@H](C)c4ccc(F)cc4)c3)cc12: > 6.60
- CCOC(=O)[C@H](C)NC(=O)c1cccc(-c2ccc3oc(-c4ccc(F)cc4)c(C(=O)NC)c3c2)c1: 5.00 to 6.00
- CNC(=O)c1c(-c2ccc(F)cc2)oc2ccc(-c3cccc(C(=O)Nc4nc(C)cs4)c3)cc12: 6.00 to 6.60
- CNC(=O)c1c(-c2ccc(F)cc2)oc2ccc(-c3cccc(C(=O)OC)c3)cc12: < 5.43
- CNC(=O)c1c(-c2ccc(F)cc2)oc2ccc(-c3ccc(C(=O)N4CCC[C@H]4CO)cc3)cc12: < 5.00
- CNC(=O)c1c(-c2ccc(F)cc2)oc2ccc(-c3cccc(C(=O)N4CCCC4C)c3)cc12 (stereo not drawn): 5.00 to 6.00
- CNC(=O)c1c(-c2ccc(F)cc2)oc2ccc(-c3cccc(C(=O)N(C)c4ccncc4)c3)cc12: < 5.00
- CNC(=O)c1c(-c2ccc(F)cc2)oc2ccc(-c3cc(CO)ccc3Cl)cc12: 5.00 to 6.00
- CNC(=O)c1c(-c2ccc(F)cc2)oc2ccc(-c3ccc(F)c(C(=O)O)c3)cc12: < 5.00
- CNC(=O)c1c(-c2ccc(F)cc2)oc2ccc(-c3ccc(OCC(C)C)cc3)cc12: < 6.40
- CNC(=O)c1c(-c2ccc(F)cc2)oc2ccc(-c3ccc(C(=O)OC(C)(C)C)cc3)cc12: < 5.00
- CNC(=O)c1c(-c2ccc(F)cc2)oc2ccc(-c3cccc(C(=O)N[C@@H](CO)C(C)C)c3)cc12 [drawing 235]: 5.00 to 6.00
- CNC(=O)c1c(-c2ccc(F)cc2)oc2ccc(-c3cccc(C(=O)Nc4cncc(C(=O)O)c4)c3)cc12: < 5.00
- CNC(=O)c1c(-c2ccc(F)cc2)oc2ccc(-c3cccc(C(=O)NC(C)c4cccnc4)c3)cc12 (stereo not drawn): 6.00 to 6.60
- C=C[C@@H]1C[C@]1(NC(=O)c1cccc(-c2ccc3oc(-c4ccc(F)cc4)c(C(=O)NC)c3c2)c1)C(=O)NS(=O)(=O)C1CC1: < 5.00
- CNC(=O)c1c(-c2ccc(F)cc2)oc2ccc(-c3cccc(C(=O)NC4CCCCCC4)c3)cc12: > 6.60
- CNC(=O)c1c(-c2ccc(F)cc2)oc2ccc(-c3cccc(C(=O)Nc4ccc(O)nc4)c3)cc12: 5.00 to 6.00
- CNC(=O)c1c(-c2ccc(F)cc2)oc2ccc(-c3cccc(C(=O)NC4(c5ccccn5)CC4)c3)cc12: > 6.60
